subjectOfTest: CIB1 and αIIb interaction (CIB1-GST : F-αIIb peptide) (Homo sapiens, UniProt Q99828)
Construct: made in house; host or cells: BL-21 plus RIL cells (E. coli)
Sequence (Q99828 1-191): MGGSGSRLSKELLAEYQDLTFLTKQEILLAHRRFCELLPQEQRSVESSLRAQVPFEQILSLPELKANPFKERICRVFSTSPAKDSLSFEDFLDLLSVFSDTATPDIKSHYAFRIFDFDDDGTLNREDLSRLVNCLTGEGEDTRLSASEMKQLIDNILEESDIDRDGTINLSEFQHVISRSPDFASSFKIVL
methodSummary: FP assay, 1536-well qHTS format (primary and confirmatory screen)
Format: binding
condition: qHTS primary screen hits, Table S2; negative = inhibition

>  <compound>
COc1cc([C@H]2Oc3cc([C@H]4Oc5cc(O)cc(O)c5C(=O)[C@@H]4O)ccc3O[C@@H]2CO)ccc1O [NCGC00091057-06]

>  <Efficacy (%)>
-74

$$$$
>  <compound>
CC(O)C(=O)O.CCOc1ccc2nc3cc(N)ccc3c(N)c2c1.O [NCGC00096056-02]

>  <Efficacy (%)>
-129

$$$$
>  <compound>
COc1ccc(C2CC(=O)Nc3nc(N4CCOCC4)sc32)c(OC)c1.O=C(O)C(F)(F)F (stereo not shown) [NCGC00488259-02]

>  <Efficacy (%)>
-59

$$$$
>  <compound>
CCOC(=O)N1CCN([N+]([O-])=NOc2ccc([N+](=O)[O-])cc2[N+](=O)[O-])CC1 [NCGC00261300-01]

>  <Efficacy (%)>
-44

$$$$
>  <compound>
Cc1ccc(S(=O)(=O)Nc2cnccc2C(=O)Nc2ccc(-c3nnn[nH]3)cc2)cc1.O=C(O)C(F)(F)F [NCGC00343837-01]

>  <Efficacy (%)>
-24

$$$$
>  <compound>
COc1ccccc1Nc1cc2ccccc2c(O)n1 [NCGC00183215-01]

>  <Efficacy (%)>
-67

$$$$
>  <compound>
NS(=O)(=O)c1ccc(Cc2c(-c3ccc(F)c(-c4ccc(F)cc4)c3)nn(-c3nc(C(=O)O)cs3)c2C2CC2)cc1F.O=C(O)C(F)(F)F [NCGC00381623-01]

>  <Efficacy (%)>
-25

$$$$

# credit: paper PMC11249646
